These entries and their values trace back to the supplement of paper PMC9112550.

- Tested on: Escherichia coli TOP10
- assay protocol: shrunken log2 fold change of peptide-encoding DNA abundance (4.5 h post-induction vs induction); higher = less antimicrobial activity (less host growth inhibition)
- conditions: time post-induction: 4.5 h; library: site-saturation at positions 5, 18, 19, 20
parameter: shrunken log2 fold change

// returns reported shrunken log2 fold change for input `RRIRWRPPRLPRPRPRPKCSPRP`
0.0308

---

- Test system: Escherichia coli TOP10
- assay protocol: shrunken log2 fold change of peptide-encoding DNA abundance (4.5 h post-induction vs induction); higher = less antimicrobial activity (less host growth inhibition)
- conditions: time post-induction: 4.5 h; library: site-saturation at positions 5, 18, 19, 20
Please note: MET applies when shrunken log2 fold change is 0.06 or greater, and NOT MET applies otherwise.

• RRIRHRPPRLPRPRPRPMHHPRP = NOT MET
• RRIRNRPPRLPRPRPRPFNYPRP = NOT MET
• RRIRFRPPRLPRPRPRPHMQPRP = NOT MET

Given `RRIRRRPPRLPRPRPRPGNAPRP` , state whether its shrunken log2 fold change is at least 0.06.
MET

Given `RRIRLRPPRLPRPRPRPLCLPRP` , state whether its shrunken log2 fold change is at least 0.06.
NOT MET

Given `RRIRVRPPRLPRPRPRPYTAPRP` , state whether its shrunken log2 fold change is at least 0.06.
NOT MET

Given `RRIRERPPRLPRPRPRPRFPPRP` , state whether its shrunken log2 fold change is at least 0.06.
MET

---

Overview of reported shrunken log2 fold change across a group of sequences:
- System: Escherichia coli TOP10
- assay protocol: shrunken log2 fold change of peptide-encoding DNA abundance (4.5 h post-induction vs induction); higher = less antimicrobial activity (less host growth inhibition)
- conditions: time post-induction: 4.5 h; library: site-saturation at positions 5, 18, 19, 20
Answer with a bare number; do not write a unit.

Recorded shrunken log2 fold change, per entry:
- RRIRDRPPRLPRPRPRPTLWPRP: 2.36
- RRIRNRPPRLPRPRPRPSRFPRP: -0.0872
- RRIRPRPPRLPRPRPRPRVGPRP: 0.543
- RRIRERPPRLPRPRPRPTNVPRP: -0.387
- RRIRCRPPRLPRPRPRPYYHPRP: -1.28
- RRIRKRPPRLPRPRPRPWNFPRP: -0.162
- RRIRARPPRLPRPRPRPTPRPRP: 1.5
- RRIRLRPPRLPRPRPRPQHQPRP: -0.261

API: value(readout=shrunken log2 fold change, system=Escherichia coli TOP10) for record `RRIRTRPPRLPRPRPRPGLGPRP`
0.466

API: value(readout=shrunken log2 fold change, system=Escherichia coli TOP10) for record `RRIRFRPPRLPRPRPRPWLCPRP`
-0.173

---

- System: Escherichia coli TOP10;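 also: peptides expressed intracellularly from a pBAD plasmid library in pooled LB shake-flask culture, induced with 0.3% L-arabinose, DNA abundance read by NGS, three biological replicates, DESeq2 with apeglm shrinkage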
- assay protocol: shrunken log2 fold change of peptide-encoding DNA abundance (4.5 h post-induction vs induction); higher = less antimicrobial activity (less host growth inhibition)
- conditions: time post-induction: 4.5 h; library: site-saturation at positions 5, 18, 19, 20
parameter: shrunken log2 fold change
Answer with a bare number; do not write a unit.

* RRIRYRPPRLPRPRPRPAWYPRP | -0.687

// returns reported shrunken log2 fold change for input `RRIRGRPPRLPRPRPRPMHPPRP`
-0.104

// returns reported shrunken log2 fold change for input `RRIRCRPPRLPRPRPRPPDQPRP`
0.581

// returns reported shrunken log2 fold change for input `RRIRWRPPRLPRPRPRPPYSPRP`
-0.262

// returns reported shrunken log2 fold change for input `RRIRGRPPRLPRPRPRPMNCPRP`
0.0167

// returns reported shrunken log2 fold change for input `RRIRSRPPRLPRPRPRPLMNPRP`
-0.204

// returns reported shrunken log2 fold change for input `RRIRSRPPRLPRPRPRPGDEPRP`
0.0674

// returns reported shrunken log2 fold change for input `RRIRARPPRLPRPRPRPHCYPRP`
0.101

// returns reported shrunken log2 fold change for input `RRIRNRPPRLPRPRPRPYGAPRP`
-0.397

// returns reported shrunken log2 fold change for input `RRIRKRPPRLPRPRPRPMPGPRP`
0.0564

// returns reported shrunken log2 fold change for input `RRIRSRPPRLPRPRPRPNHVPRP`
-0.803

// returns reported shrunken log2 fold change for input `RRIRMRPPRLPRPRPRPDPQPRP`
0.593
